Recorded pIC50 values for a group of compounds are listed next.
Tested on: H929 cells
Experiment: Cell viability assay (H929 10 FBS)
Type: cell-based
Details: Homo sapiens, NCI-H929, 24 hours, read-out: H929_10FBS IC50
Protocol: Cell Viability Assay (H929 10 FBS) Dispense 10 μL aliquot of prepared H929 cells (1:1 ratio of cells:Trypan Blue (#1450013, Bio-Rad)) onto cell counting slide (#145-0011, Bio-Rad) and obtain cell density and cell viability using cell counter (TC20, Bio-Rad). Remove appropriate volume of resuspended cells from culture flask to accommodate 4000 cells/well @ 10 μL/well. […] Read plates with microplate reader (PheraStar, BMG Labtech) using 384 well luminescence mode.
pIC50: −log10 of the molar value.

Example entries begin here.
>>> recorded_value("C[C@H]1C(=O)NS(=O)(=O)c2ccc3c(c2)N(C[C@@H]2CC[C@H]2[C@@H](OC(=O)N(C)C)/C=C/CN1C)C[C@@]1(CCCc2cc(Cl)ccc21)CO3 [Example 147]")
"> 6.30"
>>> recorded_value("COC1CN(C(=O)CO[C@H]2/C=C/COC(C)(C)C(=O)NS(=O)(=O)c3ccc4c(c3)N(C[C@@H]3CC[C@H]32)C[C@@]2(CCCc3cc(Cl)ccc32)CO4)C1 [Example 280]")
"> 6.30"
>>> recorded_value("CO[C@@H]1CCN(C(=O)O[C@H]2/C=C/CN(C)C(C)(C)C(=O)NS(=O)(=O)c3ccc4c(c3)N(C[C@@H]3CC[C@H]32)C[C@@]2(CCCc3cc(Cl)ccc32)CO4)C1 [Example 215]")
"> 6.30"
>>> recorded_value("CN1C/C=C/[C@H](OC(=O)N[C@@H]2CCOC2)[C@@H]2CC[C@H]2CN2C[C@@]3(CCCc4cc(Cl)ccc43)COc3ccc(cc32)S(=O)(=O)NC(=O)C12CCC2 [Example 243]")
"> 6.30"
>>> recorded_value("C[C@@H]1CN(C(=O)O[C@H]2/C=C/COC(C)(C)C(=O)NS(=O)(=O)c3ccc4c(c3)N(C[C@@H]3CC[C@H]32)C[C@@]2(CCCc3cc(Cl)ccc32)CO4)CCN1 [Example 175]")
"> 6.30"
>>> recorded_value("CC1/C=C/[C@H](OC(=O)N(C)C)[C@@H]2CC[C@H]2CN2C[C@@]3(CCCc4cc(Cl)ccc43)COc3ccc(cc32)S(=O)(=O)NC(=O)C(C)(C)O1 (stereo partly drawn) [Example 292]")
"> 6.30"

In: Dear colleague, I am looking for the recorded pIC50 of the following compound: C[C@@H]1C(=O)NS(=O)(=O)c2ccc3c(c2)N(C[C@@H]2CC[C@H]2[C@@H](O)/C=C/CN1C)C[C@@]1(CCCc2cc(Cl)ccc21)CO3 [Example 144]
Out: < 6.00

In: Same lookup for CC1(C)OC/C=C/[C@H](OCCN2CCC2)[C@@H]2CC[C@H]2CN2C[C@@]3(CCCc4cc(Cl)ccc43)COc3ccc(cc32)S(=O)(=O)NC1=O [Example 262] , please.
Out: > 6.30

In: Same lookup for CO[C@@H]1/C=C/CN(C)C(C)(C)C(=O)NS(=O)(=O)c2ccc3c(c2)N(C[C@@H]2CC[C@H]21)C[C@@]1(CCCc2cc(Cl)ccc21)CO3 [Example 42] , please.
Out: > 6.30

In: Same lookup for CN(C(=O)O[C@H]1/C=C/COC2(CCC2)C(=O)NS(=O)(=O)c2ccc3c(c2)N(C[C@@H]2CC[C@H]21)C[C@@]1(CCCc2cc(Cl)ccc21)CO3)C1COC1 [Example 235] , please.
Out: > 6.30

In: Same lookup for CO[C@@H]1/C=C/CN[C@@H](C)C(=O)NS(=O)(=O)c2ccc3c(c2)N(C[C@@H]2CC[C@H]21)C[C@@]1(CCCc2cc(Cl)ccc21)CO3 [Example 117] , please.
Out: < 6.00

// provenance: patent US11130769B2
